- System: HEL cells
- MEASUREMENT CONDITIONS: read-out: CC50 (HEL); HEL cells; anti-CMV table
Could you please report measured CC50 for the items listed next?

CC50 lookup needed for CCCCc1ccc(CNCc2c(O)cc3c(c2O)-c2cc(ccc2O)C2NC(=O)C4NC(=O)C5NC(=O)C(Cc6ccc(c(Cl)c6)Oc6cc4cc(c6O)Oc4ccc(cc4Cl)C(O)C(NC2=O)C(=O)NC3C(=O)O)NC(=O)C(NC(=O)OC(C)(C)C)c2ccc(O)c(c2)Oc2cc(O)cc5c2)cc1 (centres unmarked) , thanks.
> 50 µM

CC50 lookup needed for "N[C@H]1C(=O)N[C@@H]2Cc3ccc(c(Cl)c3)Oc3cc4cc(c3O)Oc3ccc(cc3Cl)[C@@H](O)[C@@H]3NC(=O)[C@H](NC(=O)[C@@H]4NC(=O)[C@@H](NC2=O)c2cc(O)cc(c2)Oc2cc1ccc2O)c1ccc(O)c(c1)-c1c(O)cc(O)cc1[C@@H](C(=O)O)NC3=O" , thanks.
> 200 µM
